Recorded Kd for the following binders
# assayed-target: T1, full-length human Tau (Tau441; 2N4R), recombinant (human, UniProt P10636 1-758)
# T1 construct: made in E. coli, His6-Smt3 tag removed; biotinylated through amines for Octet and phage work; also called r-Tau; recombinant Tau
# T1 sequence (P10636 other isoform, or with tags, fused parts or gaps limits assumed): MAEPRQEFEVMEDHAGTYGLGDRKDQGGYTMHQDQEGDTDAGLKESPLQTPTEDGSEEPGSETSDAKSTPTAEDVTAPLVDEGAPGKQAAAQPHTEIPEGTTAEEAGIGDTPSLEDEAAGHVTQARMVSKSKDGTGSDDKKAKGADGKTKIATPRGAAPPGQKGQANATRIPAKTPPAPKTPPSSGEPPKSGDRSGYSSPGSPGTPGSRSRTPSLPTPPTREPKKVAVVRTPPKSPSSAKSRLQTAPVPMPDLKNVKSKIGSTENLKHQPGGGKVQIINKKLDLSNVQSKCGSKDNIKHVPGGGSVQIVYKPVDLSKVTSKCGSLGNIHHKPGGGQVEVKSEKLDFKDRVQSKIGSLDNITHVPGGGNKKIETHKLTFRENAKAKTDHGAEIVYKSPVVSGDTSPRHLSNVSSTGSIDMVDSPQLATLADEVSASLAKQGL
# protocol-description: SPR Biacore

# binder, Kd [nM]
rows = [
    ("Clone with L1_3 and H1_4 (antibody, V domains shown, IgG based on hu1C7.v2) VH: EVQLLESGGGLVQPGGSLRLSCAASGFRFSGPGMSWVRQAPGKGLEWVASISGDGGSYIHYADSVKGRFTISRDNSKNTLYLQMNSLRAEDTAVYYCARLPYWGQGTLVTVSS VL: DIVMTQSPDSLAVSLGERATINCKSSQSLHRSGTQKDYLVWYQQKPGQPPKLLIYWASTRESGVPDRFSGSGSGTDFTLTISSLQAEDVAVYYCQQYNSYPLTFGQGTKVEIK", 0.038),
    ("Clone with H1_2 (antibody, V domains shown, IgG based on hu1C7.v2) VH: EVQLLESGGGLVQPGGSLRLSCAASGFTFSRVGTSWVRQAPGKGLEWVASISGDGGSYIHYADSVKGRFTISRDNSKNTLYLQMNSLRAEDTAVYYCARLPYWGQGTLVTVSS VL: DIVMTQSPDSLAVSLGERATINCKSSQSLLNSGNQKNYLTWYQQKPGQPPKLLIYWASTRESGVPDRFSGSGSGTDFTLTISSLQAEDVAVYYCQQYNSYPLTFGQGTKVEIKR", 0.092),
    ("Clone with L1_3 and H3_1 (antibody, V domains shown, IgG based on hu1C7.v2) VH: EVQLLESGGGLVQPGGSLRLSCAASGFTFSSYGMSWVRQAPGKGLEWVASISGDGGSYIHYADSVKGRFTISRDNSKNTLYLQMNSLRAEDTAVYYCAKLPFWGQGTLVTVSS VL: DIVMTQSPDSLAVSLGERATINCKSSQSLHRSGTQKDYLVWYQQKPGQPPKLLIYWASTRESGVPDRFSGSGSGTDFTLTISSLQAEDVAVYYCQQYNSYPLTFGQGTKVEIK", 0.062),
]
